Hello, the source for this data is patent US8901118B2, in case you need it.

Biological target: BCR-NTRK3 BaF3 cells (Homo sapiens, UniProt Q16288)
Construct: fused on or other part: P11274 (Breakpoint cluster region protein)
Sequence (Q16288 whole entry, the tested form may be a part): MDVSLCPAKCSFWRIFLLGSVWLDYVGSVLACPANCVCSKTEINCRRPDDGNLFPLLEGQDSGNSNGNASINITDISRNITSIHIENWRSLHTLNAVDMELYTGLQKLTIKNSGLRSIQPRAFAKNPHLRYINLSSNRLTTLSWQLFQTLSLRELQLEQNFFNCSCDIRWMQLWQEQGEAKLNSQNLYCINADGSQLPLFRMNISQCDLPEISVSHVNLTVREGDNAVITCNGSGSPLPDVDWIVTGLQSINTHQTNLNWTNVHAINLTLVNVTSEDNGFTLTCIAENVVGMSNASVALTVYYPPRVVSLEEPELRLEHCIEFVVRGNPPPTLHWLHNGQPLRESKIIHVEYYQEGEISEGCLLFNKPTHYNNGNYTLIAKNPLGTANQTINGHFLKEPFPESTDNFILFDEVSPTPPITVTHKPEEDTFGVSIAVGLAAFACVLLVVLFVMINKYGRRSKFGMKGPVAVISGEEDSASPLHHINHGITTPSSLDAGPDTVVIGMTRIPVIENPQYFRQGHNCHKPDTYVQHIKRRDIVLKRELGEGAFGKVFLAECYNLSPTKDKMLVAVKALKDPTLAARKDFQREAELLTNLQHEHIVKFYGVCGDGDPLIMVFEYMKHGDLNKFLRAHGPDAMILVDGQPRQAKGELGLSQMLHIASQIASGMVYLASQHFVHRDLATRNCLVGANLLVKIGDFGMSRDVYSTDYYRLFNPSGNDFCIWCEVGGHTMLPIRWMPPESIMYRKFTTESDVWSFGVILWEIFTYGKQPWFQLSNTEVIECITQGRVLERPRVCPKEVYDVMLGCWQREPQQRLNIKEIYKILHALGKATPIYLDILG
Test: BaF3 BCR-NTRK3 cell proliferation assay (ATPlite)
Details: read-out: Inhibition of Cell Proliferation IC50, BCR/BaF3 TrkC
The compounds listed here are annotated with their IC50.

item-smiles: Fc1cc(Cc2c[nH]c3ncnc(NC4CC4)c23)cnc1NC1CCC(F)(F)CC1
IC50: < 100 nM

item-smiles: Fc1ccccc1Nc1ncc(Cc2c[nH]c3ncc(Cl)cc23)cn1
IC50: > 10000 nM

item-smiles: CCc1ccc(Nc2ccc(C(=O)c3c[nH]c4ncnc(NC5CC5)c34)c(F)n2)cn1
IC50: < 10 nM

item-smiles: CCc1ccc(Nc2ccc(Cc3c[nH]c4ncnc(C5CC5)c34)c(F)n2)cn1
IC50: < 10 nM

item-smiles: COc1ccc(Nc2ccc(C(=O)c3c[nH]c4ncnc(NC(C)(C)C)c34)c(F)n2)cn1
IC50: < 10 nM

item-smiles: CCc1ccc(Nc2ccc(C(=O)c3c[nH]c4ncnc(NC)c34)c(F)n2)cn1
IC50: < 10 nM

item-smiles: Fc1nc(Nc2ccc(C3CC3)nc2)ccc1Cc1c[nH]c2ncccc12
IC50: < 10 nM

item-smiles: CCCNc1ncnc2[nH]cc(C(=O)c3ccc(Nc4cncc(OC)c4)nc3F)c12
IC50: < 1000 nM

item-smiles: CCOc1ccc(Nc2ncc(Cc3c[nH]c4ncc(C)cc34)cn2)cn1
IC50: < 100 nM

item-smiles: O=C(c1cnc(NC2CCC(F)(F)CC2)c(F)c1)c1c[nH]c2ncnc(NCC(F)(F)F)c12
IC50: < 10 nM

Okay, now this compound:
QUERY: Query (compound): `Clc1cnc2[nH]cc(Cc3cnc(NC4CCC4)nc3)c2c1` ; field requested: IC50
RESULT: > 10000 nM
